Measurement target: furin, P09958;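 also: purified furin at 1:10 enzyme:substrate in 50 mM HEPES pH 7.5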
Sequence (P09958 whole entry): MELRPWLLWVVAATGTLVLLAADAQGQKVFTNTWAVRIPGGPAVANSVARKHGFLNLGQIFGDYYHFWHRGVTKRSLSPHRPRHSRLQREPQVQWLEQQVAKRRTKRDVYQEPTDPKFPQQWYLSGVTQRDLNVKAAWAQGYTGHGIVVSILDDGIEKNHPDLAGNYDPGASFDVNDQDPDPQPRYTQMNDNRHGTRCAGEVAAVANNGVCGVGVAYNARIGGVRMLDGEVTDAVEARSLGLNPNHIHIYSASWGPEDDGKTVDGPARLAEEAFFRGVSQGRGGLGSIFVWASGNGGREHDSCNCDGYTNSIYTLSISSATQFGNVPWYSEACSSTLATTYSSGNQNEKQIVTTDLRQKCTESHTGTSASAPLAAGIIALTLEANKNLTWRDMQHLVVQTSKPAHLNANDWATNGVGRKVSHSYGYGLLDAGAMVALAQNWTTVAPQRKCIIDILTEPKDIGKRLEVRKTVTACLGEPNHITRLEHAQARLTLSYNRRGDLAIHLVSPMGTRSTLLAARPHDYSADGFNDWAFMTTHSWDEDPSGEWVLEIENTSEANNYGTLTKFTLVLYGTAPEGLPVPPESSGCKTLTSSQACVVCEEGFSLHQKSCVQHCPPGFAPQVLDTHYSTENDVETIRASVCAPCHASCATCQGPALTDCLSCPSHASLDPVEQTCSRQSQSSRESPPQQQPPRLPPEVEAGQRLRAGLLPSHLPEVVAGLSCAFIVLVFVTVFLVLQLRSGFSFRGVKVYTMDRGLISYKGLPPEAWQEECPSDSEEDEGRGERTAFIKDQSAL
Method summary: furin cleavage Z-score vs untreated control; higher = more cleavage, active = 3.5 or more, inactive = 1 or less, 8 variable residues between constant flanks
Conditions used: 15 min
The other results are listed elsewhere or left out. The true hit rate is not given.
Measured parameter: furin cleavage Z-score
Respond numerically, and do not add a unit to the figure.

Endpoint output: furin cleavage Z-score of CARRRRERDDAGNASASA [FS-1922] . Value? 10.1

Endpoint output: furin cleavage Z-score of CAGKVLIDILAGNASASA [HC1083] . Value? -0.337

Continuing:
Endpoint output: furin cleavage Z-score of CAAPRRLRRAAGNASASA [FS-7] . Value? 6.75

Endpoint output: furin cleavage Z-score of CAGKVRLRRAAGNASASA [FS-655] . Value? 7.38

Endpoint output: furin cleavage Z-score of CARSKRAAPAAGNASASA [FS-2603] . Value? 9.91

Endpoint output: furin cleavage Z-score of CARRRRGLECAGNASASA [FS-2789] . Value? 4.95

Endpoint output: furin cleavage Z-score of CAQLRRYPRNAGNASASA [FS-1249] . Value? 10.4

Endpoint output: furin cleavage Z-score of CATARHTPVNAGNASASA [HC1570] . Value? -0.38

Endpoint output: furin cleavage Z-score of CAQKGRVRRAAGNASASA [FS-78] . Value? 10.5

Endpoint output: furin cleavage Z-score of CASVGLGKVLAGNASASA [HC1081] . Value? 0.113

Endpoint output: furin cleavage Z-score of CAAEGWWARSAGNASASA [FS-394] . Value? 0.063

Endpoint output: furin cleavage Z-score of CAAAQGYKVLAGNASASA [HC783] . Value? 0.477

Endpoint output: furin cleavage Z-score of CARSKKDFEAAGNASASA [FS-2458] . Value? -0.117
